Reference source for all entries: patent US20120149735A1

# ASSAYED TARGET: hCB2 receptor (Homo sapiens)
# Construct: purchased PerkinElmer (Belgium)
# Sequence (P34972 whole entry): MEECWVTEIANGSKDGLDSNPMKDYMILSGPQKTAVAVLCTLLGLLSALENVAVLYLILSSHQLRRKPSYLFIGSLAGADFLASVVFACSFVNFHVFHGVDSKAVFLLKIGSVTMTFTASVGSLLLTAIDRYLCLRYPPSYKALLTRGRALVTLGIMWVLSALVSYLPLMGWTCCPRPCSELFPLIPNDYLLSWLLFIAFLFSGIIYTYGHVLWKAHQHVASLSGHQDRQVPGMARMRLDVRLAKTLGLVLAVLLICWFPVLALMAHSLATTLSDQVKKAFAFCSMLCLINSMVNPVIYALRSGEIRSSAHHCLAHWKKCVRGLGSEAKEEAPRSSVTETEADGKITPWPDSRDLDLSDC
# PROTOCOL: [35S]-GTPγS binding assay (CB2 functional activity assay)
# Type: biochemical
# ASSAY SETUP: CB2 functional activity assay, basal = 100%; read-out: Emax, bound stated
MEASUREMENT NAME: Emax

Consider the reported Emax for these compounds:
- COMPOUND: "CCCCCn1cc(C(=O)NC2CCCCC2)c(=O)cc1-c1ccccc1"
  Emax: "< 62%"
- COMPOUND: "CCCCCn1cc(C(=O)NC(C)C23CC4CC(CC(C4)C2)C3)c(=O)cc1-c1ccccc1 (stereo not shown)"
  Emax: "< 62%"
- COMPOUND: "CCCCCn1cc(C(=O)NC23CC4CC(CC(C4)C2)C3)c(=O)cc1C(C)(C)C"
  Emax: "> 135%"
- COMPOUND: "CCCCCn1cc(C(=O)NC23CC4CC(C)(CC(C)(C4)C2)C3)c(=O)cc1-c1ccccc1"
  Emax: "< 62%"
- COMPOUND: "CCCCCn1cc(C(=O)NC2CCCCC2)c(=O)cc1-c1ccc(Cl)cc1"
  Emax: "< 62%"

Dear colleague, I am looking for the recorded Emax of the following compound: CCCCCn1cc(C(=O)N[C@H]2CCCc3ccccc32)c(=O)cc1-c1ccccc1
< 62%

I am curious: what Emax value has been reported for CCCCCn1cc(C(=O)NC2CCCc3ccccc32)c(=O)cc1-c1ccccc1 (racemic) ?
< 62%

Entry CCCCCn1cc(C(=O)NC23CC4CC(CC(C4)C2)C3)c(=O)cc1C : reported Emax = ?
> 135%

Consider the compound CCCCCn1cc(C(=O)NN2CCCCC2)c(=O)cc1-c1ccccc1 and give its measured Emax.
< 62%

Which Emax reading was recorded for the compound CCCCCn1cc(C(=O)N[C@@H]2CCCc3ccccc32)c(=O)cc1-c1ccccc1 ?
< 62%

* * *

# ASSAYED TARGET: hCB2 cannabinoid receptor (Homo sapiens, UniProt P34972)
# Construct: purchased PerkinElmer (Belgium)
# Sequence (P34972 whole entry): as above
# PROTOCOL: Competition binding assay, hCB2 membranes, [3H]-CP-55,940
# ASSAY SETUP: hCB2 membranes, [3H]-CP-55,940 (1 nM), 30° C., 1 h; read-out: Ki CB2
Exam item: assign TRUE to entries whose Ki is below 30 nM and FALSE to entries at or above 30 nM. Note that a value of exactly 30 nM receives FALSE.

- COMPOUND: "CCCCCCn1cc(C(=O)NC23CC4CC(CC(C4)C2)C3)c(=O)cc1-c1ccccc1 [Compound 12]"
  GROUP: "TRUE"
- COMPOUND: "CCCCCn1cc(C(=O)NC23CC4CC(CC(C4)C2)C3)c(=O)cc1C [Compound 38]"
  GROUP: "TRUE"
- COMPOUND: "CCCCCn1cc(C(=O)NC2CCCCC2)c(=O)cc1-c1ccc(Cl)cc1 [Compound 19]"
  GROUP: "FALSE"
- COMPOUND: "CCCCCn1cc(C(=O)NC2CCCCC2)c(=O)cc1-c1ccccc1 [Compound 13]"
  GROUP: "TRUE"
- COMPOUND: "CCCCCn1cc(C(=O)NC23CC4CC(CC(C4)C2)C3)c(=O)cc1C(C)(C)C [Compound 20]"
  GROUP: "TRUE"

# TODO verify Ki < 30 nM strictly for this compound: CCCCCn1cc(C(=O)NCC23CC4CC(CC(C4)C2)C3)c(=O)cc1-c1ccccc1 [Compound 8]
TRUE

Is it true that Ki reported for CCCCCn1cc(C(=O)NC2CCCCC2)c(=O)cc1C(C)(C)C [Compound 21] is less than 30 nM?
TRUE

Please state whether Ki is below 30 nM for CCn1cc(C(=O)NC(C)C23CC4CC(CC(C4)C2)C3)c(=O)cc1-c1ccccc1 (centres unmarked) [Compound 5]
FALSE

* * *

# ASSAYED TARGET: hCB2 cannabinoid receptor (Homo sapiens)
# Construct: purchased PerkinElmer (Belgium)
# PROTOCOL: Competition binding assay, hCB2 membranes, [3H]-CP-55,940
# ASSAY SETUP: hCB2 membranes, [3H]-CP-55,940 (1 nM), 30° C., 1 h; read-out: Ki CB2
MEASUREMENT NAME: log10 Ki (log10 of the value in µM)
Record value = log10 of Ki given in µM.

Sample answers from the record:
- COMPOUND: "CCCCCn1cc(C(=O)NN2CCCCC2)c(=O)cc1-c1ccccc1 [Compound 17]"
  log10 Ki: -1.04
- COMPOUND: "CCCCCn1cc(C(=O)NC23CC4CC(CC(C4)C2)C3)c(=O)cc1-c1ccc(Cl)cc1 [Compound 18]"
  log10 Ki: -1.10
- COMPOUND: "CCCCCn1cc(C(=O)NC23CC4CC(CC(C4)C2)C3)c(=O)c(I)c1C [Compound 52]"
  log10 Ki: -2.05
- COMPOUND: "CCCCn1cc(C(=O)NC23CC4CC(CC(C4)C2)C3)c(=O)cc1-c1ccccc1 [Compound 10]"
  log10 Ki: -1.74
- COMPOUND: "CCCCCn1cc(C(=O)NC(C)C23CC4CC(CC(C4)C2)C3)c(=O)cc1-c1ccccc1 (stereo not shown) [Compound 6]"
  log10 Ki: -1.84

I'd like to know its log10 Ki. The compound in question is CCCCCn1cc(C(=O)NC23CC4CC(C)(CC(C)(C4)C2)C3)c(=O)cc1-c1ccccc1 [Compound 9]
-2.18

If you can, please state the reported log10 Ki value of CCCCCn1cc(C(=O)NC2CCCc3ccccc32)c(=O)cc1-c1ccccc1 (racemic) [Compound 14] .
-1.51

// lookup log10 Ki for CCCCCn1cc(C(=O)N[C@@H]2CCCc3ccccc32)c(=O)cc1-c1ccccc1 [Compound 15]
-2.00

Look up log10 Ki: CCCCCn1cc(C(=O)N[C@H]2CCCc3ccccc32)c(=O)cc1-c1ccccc1 [Compound 16]
-0.43

# log10 Ki lookup, item CCCCCn1cc(C(=O)NC23CC4CC(CC(C4)C2)C3)c(=O)cc1-c1ccccc1 [Compound 11]
-2.40
